measured_property: melting point

Challenge: Param item = COC(=O)[C@H](Cc1ccc(OCc2c(Cl)cccc2Cl)cc1)NC(=O)[C@H]1CSCN1C(=O)OC1CCOC1 (relative stereo) [Example 156] ; retrieve measured melting point.
Response given: 125 to 126.5 °C

Challenge: Field request: melting point | item: COC(=O)[C@H](Cc1ccc(OCc2c(Cl)cccc2Cl)cc1)NC(=O)[C@H]1CSCN1C(=O)OCCN1CCCC1 (relative stereo) [Example 39]
Response given: 130 to 132 °C

Challenge: Recorded melting point for COC(=O)[C@H](Cc1ccc(OCc2c(Cl)cccc2Cl)cc1)NC(=O)[C@H]1CSCN1C(=O)OCCN1CCOCC1 (relative stereo) [Example 36] , please?
Response given: 138 to 140 °C

Challenge: Which value of melting point has been reported for COC(=O)[C@H](Cc1ccc(NC(=O)c2c(Cl)cccc2Cl)cc1)NC(=O)[C@H]1CSCN1C(=O)N(CCO)CCO [Example 57] in the records?
Response given: 105 to 107 °C

Challenge: Can you share its melting point? I mean this compound: COC(=O)[C@H](Cc1ccc(NC(=O)c2c(Cl)cccc2Cl)cc1)NC(=O)[C@@H]1CCN1C(=O)OC(C)(C)C [Example 142]
Response given: 106 to 108 °C
